- Target desc: Alpha-1A adrenergic receptor (Homo sapiens, UniProt P35348)
- Experimental details: Displacement of [125I]HEAT from human recombinant adrenergic alpha1A receptor
Ki: recorded values

Before answering, review these 2 worked examples.
## Task Data request, read-out Ki, for CC(C)Oc1ccccc1N1CCN(C2CCC(NC(=O)Nc3c(Cl)cccc3Cl)CC2)CC1 (stereo in doubt; cis)
## Result 33 nM

## Task Data request, read-out Ki, for CC(C)Oc1ccccc1N1CCN(C2CCC(NC(=O)Nc3ccc(F)cc3F)CC2)CC1 (cis isomer)
## Result 14 nM

Others:
## Task Data request, read-out Ki, for COc1ccccc1NC(=O)NC1CCC(N2CCN(c3ccccc3OC(C)C)CC2)CC1 (stereo in doubt; cis)
## Result 155 nM

## Task Data request, read-out Ki, for CC(C)Oc1ccccc1N1CCN(C2CCC(NC(=O)Nc3ccccc3Cl)CC2)CC1 (stereo in doubt)
## Result 11 nM

## Task Data request, read-out Ki, for CC(C)Oc1ccccc1N1CCN(C2CCC(NC(=O)Nc3c(Cl)cccc3Cl)CC2)CC1 (stereo in doubt; trans)
## Result 6.2 nM

## Task Data request, read-out Ki, for CC(C)Oc1ccccc1N1CCN(C2CCC(NC(=O)NCc3cccc(F)c3)CC2)CC1 (stereo in doubt; cis)
## Result 82 nM

## Task Data request, read-out Ki, for CC(C)Oc1ccccc1N1CCN(C2CCC(NC(=O)Nc3ccc(F)c(F)c3)CC2)CC1 (stereo in doubt)
## Result 3.6 nM

## Task Data request, read-out Ki, for CC(C)Oc1ccccc1N1CCN(C2CCC(NC(=O)Nc3c(Cl)cc(Cl)cc3Cl)CC2)CC1 (trans isomer)
## Result 6.5 nM

###

- Target desc: Alpha-1A adrenergic receptor (Homo sapiens)
- Sequence (P35348 whole entry): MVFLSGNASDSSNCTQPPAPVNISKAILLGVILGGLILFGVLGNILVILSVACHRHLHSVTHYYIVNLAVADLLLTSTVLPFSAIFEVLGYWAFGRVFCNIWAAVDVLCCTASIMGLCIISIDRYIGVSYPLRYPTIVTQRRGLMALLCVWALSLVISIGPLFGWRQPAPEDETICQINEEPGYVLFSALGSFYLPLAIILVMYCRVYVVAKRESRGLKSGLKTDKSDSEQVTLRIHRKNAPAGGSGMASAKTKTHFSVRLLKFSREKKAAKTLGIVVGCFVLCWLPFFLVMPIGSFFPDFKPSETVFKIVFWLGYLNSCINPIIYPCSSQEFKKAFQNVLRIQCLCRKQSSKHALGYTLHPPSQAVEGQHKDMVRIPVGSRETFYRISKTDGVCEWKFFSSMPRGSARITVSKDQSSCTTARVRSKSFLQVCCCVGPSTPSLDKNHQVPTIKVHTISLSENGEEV
- Experimental details: Displacement of [125I]HEAT from human recombinant adrenergic alpha1A receptor
Ki: recorded values
Your answer should be a plain number; it is taken to be in nM.

Before answering, review these 5 worked examples.
## Task Data request, read-out Ki, for COc1ccccc1NC(=O)NC1CCC(N2CCN(c3ccccc3OC(C)C)CC2)CC1 (stereo in doubt; trans)
## Result 38

## Task Data request, read-out Ki, for COc1ccc(NC(=O)NC2CCC(N3CCN(c4ccccc4OC(C)C)CC3)CC2)c(OC)c1 (stereo in doubt; trans)
## Result 74

## Task Data request, read-out Ki, for CC(C)Oc1ccccc1N1CCN(C2CCC(NC(=O)Nc3cc(F)ccc3F)CC2)CC1 (stereo in doubt)
## Result 1.7

## Task Data request, read-out Ki, for CC(C)Oc1ccccc1N1CCN(C2CCC(NC(=O)Nc3c(F)cccc3F)CC2)CC1 (stereo in doubt; trans)
## Result 5.3

## Task Data request, read-out Ki, for CC(C)Oc1ccccc1N1CCN(C2CCC(NC(=O)Nc3cc(F)ccc3F)CC2)CC1 (cis isomer)
## Result 26

Others:
## Task Data request, read-out Ki, for COc1ccc(NC(=O)NC2CCC(N3CCN(c4ccccc4OC(C)C)CC3)CC2)c(OC)c1 (stereo in doubt; cis)
## Result 110

## Task Data request, read-out Ki, for CC(C)Oc1ccccc1N1CCN(C2CCC(NC(=O)NCc3cccc(F)c3)CC2)CC1 (stereo in doubt; trans)
## Result 11

###

- Target desc: Alpha-1A adrenergic receptor (Homo sapiens)
- Experimental details: Displacement of [125I]HEAT from human recombinant adrenergic alpha1A receptor
pKi: recorded values
// scale note: pKi = -log10(conc_M); give the bare number

Before answering, review these 3 worked examples.
## Task Data request, read-out pKi, for CC(C)Oc1ccccc1N1CCN(C2CCC(NC(=O)Nc3c(F)cccc3F)CC2)CC1 (stereo in doubt; cis)
## Result 7.28

## Task Data request, read-out pKi, for COc1ccc(Cl)cc1NC(=O)NC1CCC(N2CCN(c3ccccc3OC(C)C)CC2)CC1 (cis isomer)
## Result 7.00

## Task Data request, read-out pKi, for CC(C)Oc1ccccc1N1CCN(C2CCC(NC(=O)Nc3ccccc3Cl)CC2)CC1 (cis isomer)
## Result 7.32

Others:
## Task Data request, read-out pKi, for COc1ccc(Cl)cc1NC(=O)NC1CCC(N2CCN(c3ccccc3OC(C)C)CC2)CC1 (trans isomer)
## Result 7.47

## Task Data request, read-out pKi, for CC(C)Oc1ccccc1N1CCN(C2CCC(NC(=O)Nc3ccc(F)cc3F)CC2)CC1 (trans isomer)
## Result 8.51

###

- Target desc: D(2) dopamine receptor (Homo sapiens, UniProt P14416)
- Sequence (P14416 whole entry): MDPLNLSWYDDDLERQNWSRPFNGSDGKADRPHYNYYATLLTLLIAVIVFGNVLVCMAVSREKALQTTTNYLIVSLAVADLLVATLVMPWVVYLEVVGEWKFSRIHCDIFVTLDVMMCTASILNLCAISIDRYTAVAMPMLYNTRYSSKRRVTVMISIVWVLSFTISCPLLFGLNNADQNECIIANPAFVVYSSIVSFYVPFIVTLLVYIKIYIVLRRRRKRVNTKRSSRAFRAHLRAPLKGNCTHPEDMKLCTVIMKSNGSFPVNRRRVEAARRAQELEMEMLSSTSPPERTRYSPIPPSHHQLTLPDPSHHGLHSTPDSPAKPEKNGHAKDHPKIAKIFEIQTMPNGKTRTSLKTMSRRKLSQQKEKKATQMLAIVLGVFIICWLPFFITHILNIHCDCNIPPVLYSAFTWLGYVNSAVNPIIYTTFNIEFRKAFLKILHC
- Experimental details: Displacement of [125I]spiperone from human recombinant dopamine D2 receptor
Measurement type: pKi
// scale note: pKi = -log10(conc_M); give the bare number

## Task Data request, read-out pKi, for CC(C)Oc1ccccc1N1CCN(C2CCC(NC(=O)Nc3c(F)cccc3F)CC2)CC1 (stereo in doubt; cis)
## Result 7.66

## Task Data request, read-out pKi, for CC(C)Oc1ccccc1N1CCN(C2CCC(NC(=O)Nc3cc(F)ccc3F)CC2)CC1 (stereo in doubt)
## Result 9.34

## Task Data request, read-out pKi, for COc1ccc(NC(=O)NC2CCC(N3CCN(c4ccccc4OC(C)C)CC3)CC2)c(OC)c1 (stereo in doubt; cis)
## Result 6.54

## Task Data request, read-out pKi, for COc1ccccc1NC(=O)NC1CCC(N2CCN(c3ccccc3OC(C)C)CC2)CC1 (stereo in doubt; cis)
## Result 6.41

## Task Data request, read-out pKi, for CC(C)Oc1ccccc1N1CCN(C2CCC(NC(=O)Nc3c(Cl)cccc3Cl)CC2)CC1 (stereo in doubt; cis)
## Result 7.26

Others:
## Task Data request, read-out pKi, for CC(C)Oc1ccccc1N1CCN(C2CCC(NC(=O)NCc3cccc(F)c3)CC2)CC1 (stereo in doubt; cis)
## Result 6.74

## Task Data request, read-out pKi, for COc1ccccc1NC(=O)NC1CCC(N2CCN(c3ccccc3OC(C)C)CC2)CC1 (stereo in doubt; trans)
## Result 6.04

## Task Data request, read-out pKi, for CC(C)Oc1ccccc1N1CCN(C2CCC(NC(=O)NCc3cccc(F)c3)CC2)CC1 (stereo in doubt; trans)
## Result 6.92

## Task Data request, read-out pKi, for CC(C)Oc1ccccc1N1CCN(C2CCC(NC(=O)Nc3ccc(F)cc3F)CC2)CC1 (cis isomer)
## Result 7.45

## Task Data request, read-out pKi, for CC(C)Oc1ccccc1N1CCN(C2CCC(NC(=O)Nc3ccccc3Cl)CC2)CC1 (cis isomer)
## Result 6.06

## Task Data request, read-out pKi, for CC(C)Oc1ccccc1N1CCN(C2CCC(NC(=O)Nc3cc(F)ccc3F)CC2)CC1 (cis isomer)
## Result 6.70

## Task Data request, read-out pKi, for CC(C)Oc1ccccc1N1CCN(C2CCC(NC(=O)Nc3ccccc3Cl)CC2)CC1 (stereo in doubt)
## Result 7.48

## Task Data request, read-out pKi, for COc1ccc(NC(=O)NC2CCC(N3CCN(c4ccccc4OC(C)C)CC3)CC2)c(OC)c1 (stereo in doubt; trans)
## Result 6.05

###

- Target desc: Alpha-1A adrenergic receptor (Homo sapiens)
- Experimental details: Displacement of [125I]HEAT from human recombinant adrenergic alpha1A receptor
Measurement type: pKi
// scale note: pKi = -log10(conc_M); give the bare number

Before answering, review these 3 worked examples.
## Task Data request, read-out pKi, for CC(C)Oc1ccccc1N1CCN(C2CCC(NC(=O)Nc3c(Cl)cc(Cl)cc3Cl)CC2)CC1 (stereo in doubt)
## Result 7.29

## Task Data request, read-out pKi, for CC(C)Oc1ccccc1N1CCN(C2CCC(NC(=O)Nc3cccc(Cl)c3)CC2)CC1 (stereo in doubt; cis)
## Result 7.66

## Task Data request, read-out pKi, for CC(C)Oc1ccccc1N1CCN(C2CCC(NC(=O)Nc3ccc(F)c(F)c3)CC2)CC1 (cis isomer)
## Result 7.29

# next compound below
## Task Data request, read-out pKi, for CC(C)Oc1ccccc1N1CCN(C2CCC(NC(=O)Nc3cccc(Cl)c3)CC2)CC1 (stereo in doubt; trans)
## Result 8.29

Numbers sourced from ChEMBL document CHEMBL1143857.
